Numbers sourced from ChEMBL document CHEMBL4689842.

// Population Normal (%) lookup, one value per entry
tested on: HEK-293T; experiment: Multiplex assay against HEK293T; type: toxicity, cell-based; conditions: human, 12 h, 10 µM, compound concentration 10 uM, replicate 2
Parameter Measured: Population Normal (%)

compound=O=C(Nc1ccc(-c2ccnc(Nc3ccc(N4CCOCC4)cc3)n2)cc1)[C@@H]1CCCN1 measured_number=95
compound="CN1CCC(=C2c3ccccc3CC(=O)c3sccc32)CC1.O=C(O)/C=C/C(=O)O [KETOTIFEN FUMARATE]" measured_number=94
compound=Cn1nc(C(F)(F)F)cc1-c1cnc(N2CCc3cc(S(=O)(=O)Nc4c(F)cc(Cl)cc4F)cc(N4CCCC4=O)c32)nc1 measured_number=98
compound=Cl.O=c1c2cccn2c2ccccc2n1CCCN1CCC(c2ccc(Cl)cc2)CC1 measured_number=90
compound=COC(=N)c1nc2ccc3ncnc(Nc4ccc(OC)cc4F)c3c2s1 measured_number=96
compound=Cc1cc(C)c(S(=O)(=O)N(Cc2ccc(-c3cccc(S(C)(=O)=O)c3)cc2)Cc2ccc(C(F)(F)F)o2)c(C)c1 measured_number=97
compound=CCN1CCN(c2ccc(Nc3cc(N(C)C(=O)Nc4c(Cl)c(OC)cc(OC)c4Cl)ncn3)cc2)CC1 measured_number=97
compound=Cc1ccc2nc(NCCN)c3ncc(C)n3c2c1.O=C(O)C(F)(F)F.O=C(O)C(F)(F)F measured_number=94
compound=C=C1/C(=C\C=C2/CCC[C@]3(C)[C@@H]([C@H](C)/C=C/[C@H](C)C(C)C)CC[C@@H]23)C[C@@H](O)C[C@@H]1O measured_number=96
compound=CCn1c(=O)c(-c2ccc(-c3cncs3)cc2Cl)cc2cnc(Nc3ccc(N4CCN(C)CC4)cc3)nc21 measured_number=95
compound=CCc1cccc(CC)c1NC(=O)c1nn(C)c2c1CCc1cnc(Nc3ccc(C(=O)NC4CCN(C)CC4)cc3OC(F)(F)F)nc1-2 measured_number=92
compound=COCC(=O)NC/C=C/c1ccc2ncnc(Nc3ccc(Oc4ccc(C)nc4)c(C)c3)c2c1 measured_number=93
compound=CCCS(=O)(=O)c1nc(NC2CC2)cc(-c2ccc3c(ccn3C3CC(C)(C)NC(C)(C)C3)c2)n1 measured_number=89
compound=COc1ccc(S(=O)(=O)N(CCO)c2ccccc2CN(C)C/C=C/c2ccc(Cl)cc2)cc1.O=P(O)(O)O measured_number=96
compound=COc1cccc2cc(-c3nc([C@H]4CC[C@H](C(=O)O)CC4)n4ncnc(N)c34)[nH]c12 measured_number=94
compound=CCOc1cc(C(=O)N2CCC(N3CCN(C)CC3)CC2)ccc1Nc1ncc2c(n1)N(C1CCCC1)c1ccccc1C(=O)N2C measured_number=92
